assayDetails: Volume of distribution at steady state in Beagle dog at 2.5 mg/kg, iv
Assay type: ADME, organism-based, Canis lupus familiaris
Set-up: dose 2.5 mg/kg, route intravenous
studyConditions: in vivo, read-out: Vdss
quantityMeasured: Vd (L/kg)
The figure you give is taken to be in L/kg; do not add the unit.

Given the compound Cc1cc(Nc2nc(N[C@@H](C)c3ncc(F)cn3)ncc2Cl)n[nH]1 , what is its reported Vd? 1

----------
assayDetails: Half life in CD1 mouse at 10 mg/kg, po
Type: ADME, organism-based
Design: dose 10 mg/kg, route oral
studyConditions: in vivo
quantityMeasured: half-life (h)
The figure you give is taken to be in h; do not add the unit.

Given the compound Cc1cc(Nc2nc(N[C@@H](C)c3ncc(F)cn3)ncc2Cl)n[nH]1 [AZD-1480] , what is its reported half-life? 2

----------
Recorded clearance values for a group of molecules are listed next.
System: Liver microsomes
assayDetails: Intrinsic clearance in rat liver microsomes assessed per mg of protein at 2 uM by LCMS/MS analysis
Type: ADME, Microsome
The figure you give is taken to be in µL/min/mg; do not add the unit.

Given the molecule Cc1cc(Nc2nc(N[C@@H](C)c3ncc(F)cn3)ncc2C)n[nH]1 , what is its reported clearance? 25

// query: Cc1cc(Nc2nc(N[C@@H](C)c3ncc(F)cn3)ncc2F)n[nH]1 10

// query: Cc1cc(Nc2nc(N[C@@H](C)c3ncc(F)cn3)nc(N3CCOCC3)c2Cl)n[nH]1 16

// query: Cc1cc(Nc2cc(N3CCOCC3)nc(N[C@@H](C)c3ncc(F)cn3)n2)[nH]n1 10

Now for another entry.
Given the molecule Cc1cc(Nc2nc(N[C@@H](C)c3ncc(F)cn3)ncc2Cl)n[nH]1 , what is its reported clearance? 11

----------
Recorded solubility thermodynamic values for a group of molecules are listed next.
assayDetails: Aqueous equilibrium solubility of the compound at pH 7.4 by HPLC-UV analysis
Type: physicochemical

Given the molecule Cc1cc(Nc2nc(N[C@@H](C)c3ncc(F)cn3)nc(N3CCOCC3)c2Cl)n[nH]1 , what is its reported solubility thermodynamic? > 460 µM

// query: Cc1cc(Nc2nc(N[C@@H](C)c3ncc(F)cn3)ncc2Cl)n[nH]1 > 460 µM

// query: C[C@H](Nc1ncc(F)c(Nc2cc(C3CC3)[nH]n2)n1)c1ncc(F)cn1 > 460 µM

Continuing:
Given the molecule COc1cc(Nc2nc(N[C@@H](C)c3ncc(F)cn3)ncc2Br)n[nH]1 , what is its reported solubility thermodynamic? > 460 µM

// query: Cc1cc(Nc2nc(N[C@H](C)c3ncc(F)cn3)ncc2Cl)n[nH]1 > 460 µM

// query: C[C@H](Nc1ncc(Cl)c(Nc2cc(C3CC3)[nH]n2)n1)c1ncc(F)cn1 > 460 µM

// query: COc1cc(Nc2cc(N3CCOCC3)nc(N[C@@H](C)c3ncc(F)cn3)n2)n[nH]1 > 460 µM

// query: Cc1cc(Nc2nc(O[C@H](C)c3ncc(F)cn3)ncc2Cl)n[nH]1 > 460 µM

// query: C[C@H](Nc1ncc(Cl)c(Nc2cc(N(C)C)[nH]n2)n1)c1ncc(F)cn1 > 460 µM

// query: Cc1cc(Nc2nc(O[C@@H](C)c3ncc(F)cn3)ncc2Cl)n[nH]1 > 460 µM

----------
Recorded log10 of clearance values for a group of compounds are listed next.
assayDetails: Observed clearance in Han Wistar rat at 10 mg/kg, po and 3 mg/kg, iv
Format: ADME, organism-based
studyConditions: in vivo
Form field - Quantity: clearance; Unit: mL/min/kg; Scale: log10

Given the compound Cc1cc(Nc2cc(N3CCOCC3)nc(N[C@@H](C)c3ncc(F)cn3)n2)[nH]n1 , what is its reported log10 of clearance? 1.26

Continuing:
Given the compound Cc1cc(Nc2nc(N[C@H](C)c3ncc(F)cn3)ncc2Cl)n[nH]1 , what is its reported log10 of clearance? 1.28

// query: Cc1cc(Nc2nc(N[C@@H](C)c3ncc(F)cn3)ncc2Cl)n[nH]1 0.95

// query: Cc1cc(Nc2nc(N[C@@H](C)c3ncc(F)cn3)nc(N3CCOCC3)c2Cl)n[nH]1 2.34

// query: Cc1cc(Nc2nc(N[C@@H](C)c3ncc(F)cn3)nc(N3CCOCC3)c2F)n[nH]1 1.15

// query: Cc1cc(Nc2nc(N[C@@H](C)c3ncc(F)cn3)ncc2F)n[nH]1 1.08

// query: Cc1cc(Nc2nc(N[C@@H](C)c3ncc(F)cn3)ncc2C)n[nH]1 1.26

----------
assayDetails: Half life in Han Wistar rat at 10 mg/kg, po and 3 mg/kg, iv
Assay type: ADME, organism-based
studyConditions: in vivo
Label scheme for half-life: lower than 1 h is not met, 1 h and above is met.

Can Cc1cc(Nc2nc(N[C@@H](C)c3ncc(F)cn3)nc(N3CCOCC3)c2Cl)n[nH]1 be said to have half-life at or above 1 h? not met

// query: Cc1cc(Nc2nc(N[C@@H](C)c3ncc(F)cn3)ncc2C)n[nH]1 met

// query: Cc1cc(Nc2nc(N[C@@H](C)c3ncc(F)cn3)ncc2Cl)n[nH]1 met

// query: Cc1cc(Nc2cc(N3CCOCC3)nc(N[C@@H](C)c3ncc(F)cn3)n2)[nH]n1 met

// query: Cc1cc(Nc2nc(N[C@@H](C)c3ncc(F)cn3)ncc2F)n[nH]1 not met

// query: Cc1cc(Nc2nc(N[C@H](C)c3ncc(F)cn3)ncc2Cl)n[nH]1 met

Read the next record carefully.
Can Cc1cc(Nc2nc(N[C@@H](C)c3ncc(F)cn3)nc(N3CCOCC3)c2F)n[nH]1 be said to have half-life at or above 1 h? met

----------
assayDetails: Oral bioavailability in Beagle dog at 10 mg/kg
Assay type: ADME, organism-based, Canis lupus familiaris
studyConditions: in vivo
quantityMeasured: bioavailability (%)
The figure you give is taken to be in %; do not add the unit.

Given the compound Cc1cc(Nc2nc(N[C@@H](C)c3ncc(F)cn3)ncc2Cl)n[nH]1 , what is its reported bioavailability? 100

----------
assayDetails: Half life in Beagle dog at 2.5 mg/kg, iv
Format: ADME, organism-based, Canis lupus familiaris
Parameters: dose 2.5 mg/kg, route intravenous
studyConditions: in vivo
quantityMeasured: half-life (h)
The figure you give is taken to be in h; do not add the unit.

Given the molecule Cc1cc(Nc2nc(N[C@@H](C)c3ncc(F)cn3)ncc2Cl)n[nH]1 , what is its reported half-life? 6.9

----------
assayDetails: AUC (0 to 12 hrs) in CD1 mouse at 10 mg/kg, po
Format: ADME, organism-based
Set-up: time < 12 hr, dose 10 mg/kg, route oral
studyConditions: plasma
quantityMeasured: AUC(0-t) at 12 h (µM·h)
The figure you give is taken to be in µM·h; do not add the unit.

Given the compound Cc1cc(Nc2nc(N[C@@H](C)c3ncc(F)cn3)ncc2Cl)n[nH]1 , what is its reported AUC(0-t) at 12 h? 57.6

----------
assayDetails: Half life in Beagle dog at 10 mg/kg, po
Assay type: ADME, organism-based, Canis lupus familiaris
Set-up: dose 10 mg/kg, route oral
studyConditions: in vivo
quantityMeasured: half-life
Just the number plus its unit, please.

Given the compound Cc1cc(Nc2nc(N[C@@H](C)c3ncc(F)cn3)ncc2Cl)n[nH]1 , what is its reported half-life? 8.5 h

----------
experimentalTarget: Tyrosine-protein kinase JAK2 (Homo sapiens)
Sequence (O60674 whole entry): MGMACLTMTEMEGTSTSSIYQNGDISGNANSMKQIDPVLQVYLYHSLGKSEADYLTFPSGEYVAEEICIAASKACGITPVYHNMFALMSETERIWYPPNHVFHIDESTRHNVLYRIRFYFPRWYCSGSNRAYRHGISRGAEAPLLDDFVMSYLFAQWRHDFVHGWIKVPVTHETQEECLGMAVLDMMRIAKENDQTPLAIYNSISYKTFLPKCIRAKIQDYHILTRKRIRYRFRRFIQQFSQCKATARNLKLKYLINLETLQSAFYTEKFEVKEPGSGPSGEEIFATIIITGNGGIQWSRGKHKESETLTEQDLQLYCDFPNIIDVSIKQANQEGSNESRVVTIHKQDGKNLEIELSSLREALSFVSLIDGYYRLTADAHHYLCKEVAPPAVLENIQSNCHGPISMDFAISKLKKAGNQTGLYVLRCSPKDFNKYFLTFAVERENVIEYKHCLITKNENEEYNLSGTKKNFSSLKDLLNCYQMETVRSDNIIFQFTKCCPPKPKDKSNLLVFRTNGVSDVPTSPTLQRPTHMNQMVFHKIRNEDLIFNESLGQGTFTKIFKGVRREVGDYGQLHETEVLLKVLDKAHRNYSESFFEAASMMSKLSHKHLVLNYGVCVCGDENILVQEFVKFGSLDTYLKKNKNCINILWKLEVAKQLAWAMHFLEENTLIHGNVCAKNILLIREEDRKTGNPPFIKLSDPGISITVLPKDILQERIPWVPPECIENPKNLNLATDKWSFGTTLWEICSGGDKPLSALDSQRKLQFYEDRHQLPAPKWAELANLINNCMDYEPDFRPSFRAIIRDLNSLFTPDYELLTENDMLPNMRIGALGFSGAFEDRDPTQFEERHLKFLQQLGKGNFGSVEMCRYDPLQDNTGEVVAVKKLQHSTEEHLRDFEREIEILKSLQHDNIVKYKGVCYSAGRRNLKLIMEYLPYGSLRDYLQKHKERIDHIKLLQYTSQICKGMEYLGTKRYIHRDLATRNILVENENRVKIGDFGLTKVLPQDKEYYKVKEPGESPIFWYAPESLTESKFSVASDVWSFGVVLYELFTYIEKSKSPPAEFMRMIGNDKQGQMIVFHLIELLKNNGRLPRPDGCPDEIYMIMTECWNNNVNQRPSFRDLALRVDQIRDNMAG
assayDetails: Inhibition of JAK2 using Km ATP concentration
quantityMeasured: pIC50
Remember, pIC50 is on a log scale: it is -log10 of the molar concentration.

Quick check: pIC50 on Tyrosine-protein kinase JAK2 (Homo sapiens), item COc1cc(Nc2nc(N[C@@H](C)c3ncc(F)cn3)ncc2Br)n[nH]1 ? 8.40

// query: COc1cc(Nc2nc(N[C@@H](C)c3ncc(F)cn3)nc(N3CCOCC3)c2F)n[nH]1 8.40

// query: C[C@H](Nc1ncc(Cl)c(Nc2cc(N(C)C)[nH]n2)n1)c1ncc(F)cn1 8.05

Continuing:
Quick check: pIC50 on Tyrosine-protein kinase JAK2 (Homo sapiens), item COc1cc(Nc2nc(N[C@@H](C)c3ncc(F)cn3)nc(N3CCOCC3)c2Cl)n[nH]1 ? 8.40

// query: C[C@H](Nc1ncc(F)c(Nc2cc(C3CC3)[nH]n2)n1)c1ncc(F)cn1 8.52

// query: C[C@H](Nc1ncc(F)c(Nc2cc(N(C)C)[nH]n2)n1)c1ncc(F)cn1 7.80

// query: COc1cc(Nc2cc(N3CCOCC3)nc(N[C@@H](C)c3ncc(F)cn3)n2)n[nH]1 8.00

// query: COc1cc(Nc2nc(N[C@@H](C)c3ncc(F)cn3)ncc2Cl)n[nH]1 8.52
